Here's a roundup of IC50 values tested on Poly [ADP-ribose] polymerase tankyrase-2 (Homo sapiens, UniProt Q9H2K2), taken from various published works.
Criterion: IC50 strictly less than 100 nM. Met: yes. Not met: no.

- compound: "CNC(=O)c1[nH]cnc1C(=O)NC1CCC(C(=O)Nc2ccc(F)cc2Cl)CC1C (single isomer, unassigned)"
  label-class: "no"
- compound: "O=C(N[C@H]1CC[C@]2(CCN(c3ccc(F)cc3Cl)C2=O)CC1)c1cnn2cccnc12"
  label-class: "no"
- compound: "Cc1cc(C)n2ncc(C(=O)N[C@H]3CC[C@@]4(CCN(c5ccccc5)C4=O)CC3)c2n1"
  label-class: "no"
- compound: "Cn1ccc2c(=O)[nH]c(N3CCN(c4ccc(F)cc4S(C)(=O)=O)CC3)nc21"
  label-class: "yes"
- compound: "CC(C)(C)OC(=O)N1CCC(C2Cc3[nH]c(=O)c4ccccc4c3CO2)C1 (stereo not shown)"
  label-class: "yes"
- compound: "CNC(=O)c1[nH]cnc1C(=O)N[C@H]1CC[C@@]2(CCN(c3ccc(F)cc3)C2=O)CC1"
  label-class: "no"
- compound: "O=C(N[C@H]1CC[C@@]2(CCN(c3ccc(F)cc3Cl)C2=O)CC1)c1cnn2c(O)ccnc12"
  label-class: "yes"
- compound: "CNC(=O)c1nc[nH]c1C(=O)N[C@H]1CC[C@@]2(CCCN(c3cc(F)c(F)cc3Cl)C2=O)CC1"
  label-class: "yes"
- compound: "CNC(=O)c1nc[nH]c1C(=O)N[C@H]1CC[C@H](C(=O)Nc2c(Cl)cc(F)cc2C#N)CC1"
  label-class: "no"
- compound: "O=C(N[C@H]1CC[C@H](C(=O)Nc2ccc(F)cc2Cl)CC1)c1cnn2ccccc12"
  label-class: "no"
- compound: "COC(=O)c1cc(C)nc2c(C(=O)N[C@H]3CC[C@H](C(=O)Nc4ccc(F)cc4Cl)CC3)cnn12"
  label-class: "no"
- compound: "CC(C)C1Cc2[nH]c(=O)c3ccc(N)cc3c2CO1 (racemic)"
  label-class: "no"
- compound: "Cn1ccc2c(=O)[nH]c(N3CCC(c4ccc(F)cc4)CC3)nc21"
  label-class: "yes"
- compound: "Cn1ccc2c(=O)[nH]c(N3CCN(c4ccccc4C#N)CC3)nc21"
  label-class: "yes"
- compound: "COC(C)(C)CNC(=O)c1nc[nH]c1C(=O)N[C@H]1CC[C@H](C(=O)Nc2cc(F)c(F)cc2Cl)CC1"
  label-class: "yes"

###

Here's a roundup of IC50 values tested on Poly [ADP-ribose] polymerase tankyrase-2 (Homo sapiens), taken from various published works.
endpoint: IC50

- compound: "CN1c2ccccc2C(=O)NC1c1c[nH]nc1-c1ccc(I)cc1 (centres unmarked)"
  result: "< 5 nM"
- compound: "CCN(c1ccccc1Cl)C(=O)[C@H]1CC[C@H](NC(=O)c2[nH]cnc2C(=O)NC)CC1"
  result: "150 nM"
- compound: "Cc1cc(C)n2ncc(C(=O)N[C@H]3CC[C@H](C(=O)Nc4ccncc4Cl)CC3)c2n1"
  result: "200 nM"
- compound: "CN1c2ccccc2C(=O)NC1c1c[nH]nc1-c1ccc(-c2ccc(N3CCOCC3)cc2)cc1 (centres unmarked)"
  result: "5 to 20 nM"
- compound: "Cc1cc(NC(=O)[C@H]2CC[C@H](NC(=O)c3[nH]cnc3C(=O)NCC3CCCO3)CC2)c(Cl)cc1F (some centres unmarked)"
  result: "49 nM"
- compound: "O=C(N[C@H]1CC[C@@]2(CCN(c3cc(F)c(F)cc3Cl)C2=O)CC1)c1cnc2cccnn12"
  result: "2 nM"
- compound: "CN1c2ccccc2C(=O)NC1c1c[nH]nc1-c1ccc(F)cc1 (centres unmarked)"
  result: "5 to 20 nM"
- compound: "Cn1ncc2c(=O)[nH]c(-c3ccc(C(F)(F)F)cc3)nc21"
  result: "34.5 nM"
